Cited source: the RNAGym collection of RNA variant scans (doi:10.7554/elife.80360)

Collected self-cleavage values appear next to each entry.
B1: HDV Ribozyme (parent)
chain: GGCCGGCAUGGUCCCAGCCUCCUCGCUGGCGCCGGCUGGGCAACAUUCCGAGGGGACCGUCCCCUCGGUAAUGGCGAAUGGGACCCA

Variants of: B1
Assay Summary: self-cleavage, relative activity (ratio to wild type); higher = more cleavage; co-transcriptional

Sequence Data	self-cleavage
GGCCGGCAUGGUCCCAGCCUCCUCGCUGGCGCCGGCUGGGCAACAUUCCGAGGGGACCGUUCCCUCGGUAAUGGCGAAUGGGACGCA [C61U C85G]	0.981
GGCCGGCAUGGUCCCAGCCUCCUCGCUAGCGCCGGCUGGGCAACAUUCCGAGGGGACCGUCCCCUCGGUAAUUGCGAAUGGGACCCA [G28A G73U]	0.0326
GGCCGGCAUGGUCCCAGCCUCCUCGCUGGCGCCGGCUGGGCAACAUUCAGAGGGGUCCGUCCCCUCGGUAAUGGCGAAUGGGACCCA [C49A A56U]	1.1
GGCCGGCAUGGUCCCGGCCUCCUCGCUGGCGCCGGCUGGGCAACAUUCCGAGGGGACCGUCCCCUCGGUAAUGGCGAAUGGGACGCA [A16G C85G]	0.965
GGCCGGCAUGGUCCCAGCCUCCUCCCUGGCGCCGGCUGGGCAACAUUCCGAGGGGAUCGUCCCCUCGGUAAUGGCGAAUGGGACCCA [G25C C57U]	0.219
GGCCGGCAUGGUCCCAGCCUUCUCGCUGGCGCCGGCUGGGCAACAUUCCGAGGGGACCGUCCCCUAGGUAAUGGCGAAUGGGACCCA [C21U C66A]	0.153
GGCCGGCAUGGUGCCAGCCUCCUCGCUGGCGCCGGCUGGGCAACAUUCCGAGGGUACCGUCCCCUCGGUAAUGGCGAAUGGGACCCA [C13G G55U]	0.0583
GGCAGGCAUGGUCCCAGCCUCCUCGCUGGCGCCAGCUGGGCAACAUUCCGAGGGGACCGUCCCCUCGGUAAUGGCGAAUGGGACCCA [C4A G34A]	0.284
GGCCGGCAUGGUCCCAGCCUCCUCGCUGGCGCCGGCUCGGCAACAUUCCGAGGGGACCGUCCCCUCGGUACUGGCGAAUGGGACCCA [G38C A71C]	0.231
GGCCGGCAUGGUCCCAGCCUCCUCGCUGGCGCCGGAUGGGCAACAUUCCGAGGGGACCGUCCCCUCAGUAAUGGCGAAUGGGACCCA [C36A G67A]	0.126
GGCCGGCAUGGUCCCAGCCUCCUCGCUGGCGCCGGCUGGGCAACAUUCCGAGGGGUCCGUCCCCUCGGUACUGGCGAAUGGGACCCA [A56U A71C]	0.966
GGCCGGCAUGGUCCCAGCCUCCUCGCUGGCGCCGGCUGGGCAACAUUCCGAGGGGACCGUCCCCUCGGUAAUGGCAAAUGGGCCCCA [G76A A83C]	0.539
GGCCGGCAUGGUACCAGCCUCCUCGCUGGCGCCGGCUGGGCAACAUUCCGAGGGGACCGUCCCCUCGGUAAGGGCGAAUGGGACCCA [C13A U72G]	0.0639
GGCCGGCAUGGUCCCAGCCUCCUCGCUGGCGCCGGCUGGGCAACAUUCCGAGGGGACCGUCACCUCGGUAAUGGCGUAUGGGACCCA [C62A A77U]	0.45
GGCCGGCAUGGUCCCAGACUCCUCGCUGGCGCCGGCUGGGCAACAUUCCGAGGGGACCGUCCCCUCGGUAAUGGCGAAUGGGAACCA [C18A C84A]	0.151
GGCCGGCAUGGUCCCAGCCUCCCCGCUGGCGCCGGCUGGGCAACAUUCCGAGGGGACCGUCCCCUCGGUAAUGGCGAUUGGGACCCA [U23C A78U]	0.151
GGCCGGCAUGGUCCCAGCCUCAUCGCUGGCGCCGGCUGGGCAACAUUCCGAGGGGACCGUCCCCUAGGUAAUGGCGAAUGGGACCCA [C22A C66A]	0.258
GGCCGGCAUGGUCCCAGCCUCCUCGCUGGCGCCGGCUAGGCAACAUUCCAAGGGGACCGUCCCCUCGGUAAUGGCGAAUGGGACCCA [G38A G50A]	0.0886
GGCCGGCAUGGUCCCAGCCUCCUCGCUGGCGCCGGCUGGGCAACAUUCCGAGGGGACUGUUCCCUCGGUAAUGGCGAAUGGGACCCA [C58U C61U]	0.954
GGCCGGCAUGGUCCCAGCCUCCUUGCUGGCGCCGGCUGGGCAACAUUCCGAGGGGACCGUCUCCUCGGUAAUGGCGAAUGGGACCCA [C24U C62U]	0.763
GGCCGGCAUGGUCCCAGCCUCCUCGCUGGCGCCGGCUGGGCAACAUUCCGAGGGGACCGUCCCCUCGGUAAUGGCGUAUUGGACCCA [A77U G80U]	0.161
GGCCGGCAUGGUUCCAGCGUCCUCGCUGGCGCCGGCUGGGCAACAUUCCGAGGGGACCGUCCCCUCGGUAAUGGCGAAUGGGACCCA [C13U C19G]	0.138
GGCCGGCAUGGUCCCAGCCUCCUCGCUGGCGCCGGCUGGGCAACAUUCCGAGGGAACCGUCCCCUCGGGAAUGGCGAAUGGGACCCA [G55A U69G]	0.942
GGCCGGCAUGGUCCCAGCCUCCUCGCUGGCGCCGGCUGGGCAUCAUUCCGAGGGGACAGUCCCCUCGGUAAUGGCGAAUGGGACCCA [A43U C58A]	0.614
GGCCGGCAUGGUCCCAGCCUCCUCGCUGGCGCCGGCUGGGCAACAUUCCGAGGGGACCGUCCCCUCGUUAAUGGCGAAUGGGAGCCA [G68U C84G]	0.525
GGCCGGCAUGGUCCCAGCCUCCUCACUGGCGCCGGCUGCGCAACAUUCCGAGGGGACCGUCCCCUCGGUAAUGGCGAAUGGGACCCA [G25A G39C]	0.0332
GGCCGGCAUGGUCCCAGCCUGCUCGCUGGCGCCGGCUGGACAACAUUCCGAGGGGACCGUCCCCUCGGUAAUGGCGAAUGGGACCCA [C21G G40A]	0.0346
GGCCGGCAUGGUCCCAGCCUCCUAGCUGGCGCCGGCUGGGCAACAUUCCGAGGGGACCGUGCCCUCGGUAAUGGCGAAUGGGACCCA [C24A C61G]	0.678
GGCCGGCAUGGUCCCAGCCUCCUCGCUGGCGUCGGCUGGGCCACAUUCCGAGGGGACCGUCCCCUCGGUAAUGGCGAAUGGGACCCA [C32U A42C]	0.233
GGCCGGCAUGGUCCCAGCCUCCUCGCUGGCGCCGGCUGGCCAACAUUCCGAGGGGACCGUCCCCUCGGUAAUGUCGAAUGGGACCCA [G40C G74U]	0.202
GGCCGGCACUGUCCCAGCCUCCUCGCUGGCGCCGGCUGGGCAACAUUCCGAGGGGACCGUCCCCUCGGUAAUGGCGAAUGGGACCCA [U9C G10U]	0.731
GGCCGGCAUGGUCCCAGCCUCCUCGCUGGCGCCGGCCGGGCAACAUUCCGAGGGGACCGCCCCCUCGGUAAUGGCGAAUGGGACCCA [U37C U60C]	0.864
GGCCGGCAUGGUCCCAGCCUCCUCGCUGGCGCCGGCUGGGCAACAUUCCGAGGGGACCCUCCCCUCGAUAAUGGCGAAUGGGACCCA [G59C G68A]	0.906
